- Test system: U2OS
- assay.info: Multiplex assay against U2OS
- Type: toxicity, cell-based
- condition.details: human, 24 h, 10 µM, compound concentration 10 uM
measurement.label: Population Hoechst High Intensity Objects (%)
Answer in %, number only, no unit symbol.

Qu. I have this compound here, "COc1cc(C(=O)N2CC[C@@H](O)[C@@H](N)C2)cc2nc(-c3cc4ccccc4n3CC3CC3)n(C)c12.Cl" , and I need its recorded Population Hoechst High Intensity Objects (%).
Ans. 4

Qu. Consider next the compound "CC(C)c1ccc(/C=N/NC(=O)c2ccc(O)cc2)cc1" in the same way.
Ans. 0

Qu. Also "Cl.Cl.N#Cc1ccc(O[C@@H]2c3ccccc3C[C@H]2N2CCC[C@@H](N)C2)c(Cl)c1" , if possible.
Ans. 0

Qu. // next record "CC(F)(F)CN1CCOc2c(nn(-c3ccccc3Cl)c2-c2ccc(Cl)cc2)C1=O"
Ans. 1

Qu. Also "CC(C)Oc1ccc(F)c(-c2cnc(N)c(C(=O)Nc3cnccc3N3CCC[C@@H](C(=O)O)C3)n2)c1" ?
Ans. 0

Qu. Then this compound: "CCCCCCNC(=O)Nc1ccc(S(=O)(=O)Nc2ccc(CCNC[C@H](O)COc3ccc(O)cc3)cc2)cc1"
Ans. 2

Qu. How about "COc1cc2ncnc(Nc3ccc(Oc4ccccc4)cc3C)c2cc1OC.Cl" ?
Ans. 0

Qu. Repeat for the following compound: "CC/C(=C(\c1ccc(O)cc1)c1ccc(OCCN(C)C)cc1)c1ccccc1"
Ans. 0

Qu. Param item: "COCCn1c(C)c(C)s/c1=N\C(=O)C1C(C)(C)C1(C)C"
Ans. 1

###

- Tested on: Fibroblast
- assay.info: Multiplex assay against human fibroblast
- Assay type: toxicity, cell-based
- condition.details: 48 h, 10 µM, compound concentration 10 uM
For each entry below, report its Population Membrane Permeable-Phenotype (%) value.
Write down the numeric answer in % and omit the unit.

Qu. Returns the measured Population Membrane Permeable-Phenotype (%) for the input compound. Input: "COc1cc(C(=O)N2CC[C@@H](O)[C@@H](N)C2)cc2nc(-c3cc4ccccc4n3CC3CC3)n(C)c12.Cl"
Ans. 0

Qu. Another compound to look at: "S=C(NCCCc1c[nH]cn1)NCCCN(Cc1ccc(Cl)c(Cl)c1)c1ccc(Br)cn1"
Ans. 0

Qu. Same question, "CSCC[C@H](NC=O)C(=O)N[C@@H](CC(C)C)C(=O)N[C@@H](Cc1ccccc1)C(=O)O" this time
Ans. 4

Qu. Consider next the compound CC/C(=C(\c1ccc(O)cc1)c1ccc(OCCN(C)C)cc1)c1ccccc1 [AFIMOXIFENE] in the same way.
Ans. 4.71

###

- System: Fibroblast
- assay.info: Multiplex assay against human fibroblast
- Type: toxicity, cell-based
- condition.details: 12 h, 10 µM, compound concentration 10 uM
measurement.label: Population Hoechst High Intensity Objects (%)
Give a bare numeral; the unit % is implied.

Qu. Please report the recorded Population Hoechst High Intensity Objects (%) for "O=C1NCc2ccc3c(-c4cccc(Cl)c4)c[nH]c3c21" .
Ans. 0

Qu. Similarly, "CSCC[C@H](NC=O)C(=O)N[C@@H](CC(C)C)C(=O)N[C@@H](Cc1ccccc1)C(=O)O" ?
Ans. 38

Qu. Another molecule: "CC(C)Oc1ccc(F)c(-c2cnc(N)c(C(=O)Nc3cnccc3N3CCC[C@@H](C(=O)O)C3)n2)c1"
Ans. 0

Qu. Follow-up item: "COc1cc2ncnc(Nc3ccc(Oc4ccccc4)cc3C)c2cc1OC.Cl"
Ans. 0

Qu. And the next one, CC/C(=C(\c1ccc(O)cc1)c1ccc(OCCN(C)C)cc1)c1ccccc1 [AFIMOXIFENE] ?
Ans. 0

Qu. Do the same for O=C(O)c1cc2ccccc2c(Cc2c(O)c(C(=O)O)cc3ccccc23)c1O [PAMOIC ACID] please
Ans. 4

Qu. Now consider "CC(C)c1ccc(/C=N/NC(=O)c2ccc(O)cc2)cc1" and answer again.
Ans. 0

Qu. CSc1ccccc1N1CCN(CCCCCC(=O)NC2CCCc3ccccc32)CC1.Cl (stereo not given) , same question.
Ans. 5

Qu. Then what about the molecule "CN1CCC(C(=O)c2cccc(NC(=O)c3c(F)cc(F)cc3F)n2)CC1" ?
Ans. 4

Qu. Next up: O=c1cccc2n1C[C@@H]1CNC[C@H]2C1 [CYTISINICLINE]
Ans. 0

###

- System: U2OS
- assay.info: Multiplex assay against U2OS
- Assay type: toxicity, cell-based
- condition.details: human, 24 h, 10 µM, compound concentration 10 uM
measurement.label: Population Healthy Nuclei (%)
Give just the numeric value; % need not be written.

Qu. Fill in the recorded Population Healthy Nuclei (%) for this molecule, with U2OS as test system: COC[C@@H](c1ccc(C(F)(F)F)cc1)N1CCN(C2(C)CCN(C(=O)c3c(C)ncnc3C)CC2)C[C@@H]1C.O=C(O)/C=C\C(=O)O [VICRIVIROC MALEATE]
Ans. 68

Qu. Here is the next molecule: "CN1CCC(C(=O)c2cccc(NC(=O)c3c(F)cc(F)cc3F)n2)CC1"
Ans. 68

Qu. For CC(C)(C)c1ccc(S(=O)(=O)Nc2ccc(Cl)cc2C(=O)c2cc[n+]([O-])cc2)cc1 [VERCIRNON] then?
Ans. 72

###

- Test system: HEK-293T
- assay.info: Multiplex assay against HEK293T
- Type: toxicity, cell-based
- condition.details: human, 24 h, 10 µM, compound concentration 10 uM
measurement.label: Population Pyknosed Nuclei (%)

Qu. So what does the record say about Population Pyknosed Nuclei (%) for "CC(F)(F)CN1CCOc2c(nn(-c3ccccc3Cl)c2-c2ccc(Cl)cc2)C1=O" ?
Ans. 15%

Qu. Thanks! And "CN(C)CCCc1cc(C(=O)Nc2ccc(-c3ccncc3)cc2)ccc1O.Cl.Cl" ?
Ans. 9%

Qu. Same lookup for "CCCCC(=O)N(Cc1ccc(-c2ccccc2-c2nnn[nH]2)cc1)[C@H](C(=O)O)C(C)C" , please.
Ans. 7%

Qu. Entry "COc1c(C)cc(NC(=O)c2nn(Cc3ccc(F)cc3)c3c2CN(C(=O)c2ccc[nH]2)C[C@]3(C)C(N)=O)cc1C" please
Ans. 19%

###

- Test system: Fibroblast
- assay.info: Multiplex assay against human fibroblast
- Assay type: toxicity, cell-based
- condition.details: 12 h, 1 µM, compound concentration 1 uM
measurement.label: Population Mitotic Cells (%)
Unit % implied. Number only.

Qu. Request body: readout Population Mitotic Cells (%), system Fibroblast, query COC[C@@H](c1ccc(C(F)(F)F)cc1)N1CCN(C2(C)CCN(C(=O)c3c(C)ncnc3C)CC2)C[C@@H]1C.O=C(O)/C=C\C(=O)O [VICRIVIROC MALEATE] . Return the value.
Ans. 63

Qu. Next compound up: "C[C@@H]1CC(=O)Nc2cccc(-c3ccc4c(c3)c(-c3cnn(C)c3)nn4C)c2N1"
Ans. 61

###

Answer each item with its documented Population Hoechst High Intensity Objects (%).
- Tested on: HEK-293T
- assay.info: Multiplex assay against HEK293T
- Format: toxicity, cell-based
- condition.details: human, 12 h, 10 µM, compound concentration 10 uM
A number alone suffices; assume %.

Qu. Requested read-out: Population Hoechst High Intensity Objects (%). Entry: O=C(O)c1cc2ccccc2c(Cc2c(O)c(C(=O)O)cc3ccccc23)c1O [PAMOIC ACID]
Ans. 8

Qu. Another molecule: CCC(=O)N1CCN(c2ccc(-n3c(=O)ccc4cnc5ccc(-c6cnc7ccccc7c6)cc5c43)cc2C(F)(F)F)CC1 [TORIN1]
Ans. 7

Qu. Next entry: CN1CCN2c3ncccc3Cc3ccccc3C2C1 (stereo unspecified) [MIRTAZAPINE]
Ans. 6

Qu. Moving on to the next molecule: CC/C(=C(\c1ccc(O)cc1)c1ccc(OCCN(C)C)cc1)c1ccccc1 [AFIMOXIFENE]
Ans. 0

Qu. Also, CC[C@H](Nc1ncnc2[nH]cnc12)c1nc2cccc(F)c2c(=O)n1-c1ccccc1 [IDELALISIB] please.
Ans. 0

Qu. Okay, and "S=c1[nH]nc(-c2cccs2)n1-c1ccccc1" ?
Ans. 0

Qu. And for "O=C1N=C(NCc2cccs2)S/C1=C\c1ccc2ncccc2c1" ?
Ans. 0

Qu. Cool, now O=c1cccc2n1C[C@@H]1CNC[C@H]2C1 [CYTISINICLINE]
Ans. 0

Qu. Thanks! And "COc1c(C)cc(NC(=O)c2nn(Cc3ccc(F)cc3)c3c2CN(C(=O)c2ccc[nH]2)C[C@]3(C)C(N)=O)cc1C" ?
Ans. 13

Qu. Can you handle "COc1cc2ncnc(Nc3ccc(Oc4ccccc4)cc3C)c2cc1OC.Cl" next?
Ans. 0

###

- Tested on: U2OS
- assay.info: Multiplex assay against U2OS
- Type: toxicity, cell-based
- condition.details: human, 48 h, 10 µM, compound concentration 10 uM
So I've got a bunch of molecules here, and I need their Population Membrane Permeable-Phenotype (%) values.
Give a bare numeral; the unit % is implied.

Qu. Test system U2OS; read-out Population Membrane Permeable-Phenotype (%); what value for COC[C@@H](c1ccc(C(F)(F)F)cc1)N1CCN(C2(C)CCN(C(=O)c3c(C)ncnc3C)CC2)C[C@@H]1C.O=C(O)/C=C\C(=O)O [VICRIVIROC MALEATE] ?
Ans. 3

Qu. Lookup "CC(F)(F)CN1CCOc2c(nn(-c3ccccc3Cl)c2-c2ccc(Cl)cc2)C1=O"
Ans. 8

Qu. Item: "CCCCCCNC(=O)Nc1ccc(S(=O)(=O)Nc2ccc(CCNC[C@H](O)COc3ccc(O)cc3)cc2)cc1"
Ans. 7

Qu. What about this molecule? COc1ccc2c(c1)C(C(=O)N(Cc1ccc(N(C)C)cc1)c1ccc(C(C)C)cc1)CCC2.Cl (stereo not drawn)
Ans. 43

Qu. Also, "O=C(O)Cc1ccccc1Nc1c(Cl)cccc1Cl" please.
Ans. 6

Qu. One more molecule: "COc1cc(C(=O)N2CC[C@@H](O)[C@@H](N)C2)cc2nc(-c3cc4ccccc4n3CC3CC3)n(C)c12.Cl"
Ans. 47

Qu. Queued: "CC/C(=C(\c1ccc(O)cc1)c1ccc(OCCN(C)C)cc1)c1ccccc1"
Ans. 2

Qu. Query "CCN1CCN(Cc2ccc(Nc3ncc(F)c(-c4cc(F)c5nc(C)n(C(C)C)c5c4)n3)nc2)CC1.CS(=O)(=O)O" next
Ans. 9.09
